FYI, the data here is from ChEMBL document CHEMBL3301472.

# method: MMV: MTT Cytotoxicity Assay Day 7 pi of Assay #11 (NO washout), U87-CD4-CXCR4 cells, % cell death @ 5mM compound
# Format: toxicity, cell-based
# particulars: human, u87-cd4-cxcr4, 5000 µM
endpoint.label: % Cell Death

Worked examples, 2 molecules total:
molecule	% Cell Death
Cc1cc(Nc2ccc(C)c(Cl)c2)n2nc(C(F)(F)F)nc2n1	10
CCOc1cc(Cl)c(C(C)NC(=O)c2cccc(OC)c2)cc1OCC (stereo not drawn)	28

Consider the additional molecule presented here.
Name the recorded % Cell Death for Br.Cc1ccc(C)c(-c2csc(Nc3ccc(C)c(C)c3)n2)c1 . 28

----------
Let's look at some compounds and their measured % Cell Death.
# method: MMV: MTT Cytotoxicity Assay Day 7 pi of Assay #6 (compound washed out Day 1 pi), U87-CD4-CCR5 cells, % cell death @ 5mM compound
# Type: toxicity, cell-based
# particulars: human, u87-cd4-ccr5, 5000 µM

Some compounds with known % Cell Death results, for comparison:
compound	endpoint.label	meas.value
O=C(Nc1ccc(F)c(Cl)c1)Nc1ccc(Cl)c(Cl)c1	% Cell Death	-6
COc1cccc(Nc2nc(NCCO)c3ccccc3n2)c1.Cl	% Cell Death	44
COc1cccc(NC(=O)[C@H](C(C)C)n2c(=O)[nH]c3ccccc3c2=O)c1	% Cell Death	24
O=C(NCc1ccco1)C1CCN(S(=O)(=O)c2ccc(Br)cc2)CC1	% Cell Death	5

Need % Cell Death of Cc1ccc(C)c(Cn2c(N3CCC(C(=O)NCc4cccs4)CC3)nc3ccccc32)c1 , thanks. 57

Repeat for the following compound: COc1cc(OC)cc(C(=O)Nc2ccc(-c3nc4ccccc4[nH]3)cc2)c1 59

Thanks! And N#Cc1nc(Cc2cccc3ccccc23)oc1N1CCN(C(c2ccccc2)c2ccccc2)CC1 ? 78

Same lookup for CCCCN(CCCC)S(=O)(=O)c1ccc(NC(=O)c2ccco2)cc1 , please. 36

How about this compound: COc1ccc(OC)c(C2C3=C(CC(C)(C)CC3=O)N(c3ccc(Cl)c(Cl)c3)C3=C2C(=O)CC(C)(C)C3)c1 28

Try this compound too: CN1C=C(c2ccc3ccccc3n2)C(c2c[nH]c3ccccc23)c2ccccc21 (stereo not given) 13

Ok, now COc1cc(CNCCc2ccc(Cl)cc2)cc(OC)c1O -15

Here is the next compound: CCCCc1ccc(NS(=O)(=O)c2cc3c4c(c2)CCN4C(=O)CC3)cc1 47
